Provide the recorded pIC50 for the entries that follow.
Please treat pIC50 as minus the base-10 logarithm of the molar concentration.

Exercise: Could you share what pIC50 was measured for N=C(N)c1ccc2cc(OC(=O)c3ccccc3)ccc2c1 [Compound 1, 6-amidino-2-naphthyl benzoate] , tested on Plasmin (Homo sapiens, UniProt P00747)?
Solution: 5.70

Exercise: Could you share what pIC50 was measured for N=C(N)c1ccc2cc(OC(=O)CCc3ccc(N)cc3)ccc2c1 [Compound 51] , tested on Plasmin (Homo sapiens, UniProt P00747)?
Solution: 5.22

Exercise: Could you share what pIC50 was measured for N=C(N)c1ccc2cc(OC(=O)c3ccc(CN)cc3)ccc2c1 [Compound 22] , tested on Plasmin (Homo sapiens, UniProt P00747)?
Solution: 5.40

Exercise: Could you share what pIC50 was measured for COc1ccc(C(=O)Oc2ccc3cc(C(=N)N)ccc3c2)cc1 [Compound 7] , tested on Plasmin (Homo sapiens, UniProt P00747)?
Solution: 5.52

Exercise: Could you share what pIC50 was measured for N=C(N)c1ccc2cc(OC(=O)C=Cc3ccc([N+](=O)[O-])cc3)ccc2c1 [Compound 62, 6-amidino-2-naphthyl 4-nitrocinnamate] , tested on Plasmin (Homo sapiens, UniProt P00747)?
Solution: 5.70

Exercise: Could you share what pIC50 was measured for CSc1ccc(C(=O)Oc2ccc3cc(C(=N)N)ccc3c2)cc1 [Compound 30] , tested on Plasmin (Homo sapiens, UniProt P00747)?
Solution: 5.70

Exercise: Could you share what pIC50 was measured for CC(=O)c1ccc(C(=O)Oc2ccc3cc(C(=N)N)ccc3c2)cc1 [Compound 32] , tested on Plasmin (Homo sapiens, UniProt P00747)?
Solution: 5.52

---

Provide the recorded pIC50 for the entries that follow.
test_target: C1r (Homo sapiens)
Sequence (P00736 464-705 limits assumed): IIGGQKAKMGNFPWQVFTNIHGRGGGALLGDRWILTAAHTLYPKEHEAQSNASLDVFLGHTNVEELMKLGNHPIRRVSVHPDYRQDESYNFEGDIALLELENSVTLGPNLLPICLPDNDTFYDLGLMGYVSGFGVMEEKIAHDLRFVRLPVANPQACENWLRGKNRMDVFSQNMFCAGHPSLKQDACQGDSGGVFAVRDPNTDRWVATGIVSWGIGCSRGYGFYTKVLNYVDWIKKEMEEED
Sequence (P00736 18-463 partner limits assumed): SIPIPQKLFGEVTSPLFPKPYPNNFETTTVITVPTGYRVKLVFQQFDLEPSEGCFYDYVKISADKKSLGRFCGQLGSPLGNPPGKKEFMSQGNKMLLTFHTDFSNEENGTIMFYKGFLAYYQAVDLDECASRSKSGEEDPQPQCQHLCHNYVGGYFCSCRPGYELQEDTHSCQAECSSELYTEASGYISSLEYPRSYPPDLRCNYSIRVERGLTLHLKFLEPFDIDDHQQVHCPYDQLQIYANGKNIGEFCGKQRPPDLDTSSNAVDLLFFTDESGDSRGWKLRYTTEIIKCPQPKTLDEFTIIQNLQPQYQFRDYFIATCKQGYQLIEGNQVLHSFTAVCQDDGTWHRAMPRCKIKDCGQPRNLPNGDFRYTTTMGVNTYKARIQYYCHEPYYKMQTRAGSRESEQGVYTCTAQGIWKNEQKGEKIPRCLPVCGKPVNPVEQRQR
Please treat pIC50 as minus the base-10 logarithm of the molar concentration.

Exercise: May I ask what pIC50 has been recorded for N=C(N)c1ccc2cc(OC(=O)c3ccc(CN)cc3)ccc2c1 [Compound 22] ?
Solution: 6.52

Exercise: May I ask what pIC50 has been recorded for N=C(N)c1ccc2cc(OC(=O)C=Cc3cccc(C(F)(F)F)c3)ccc2c1 [Compound 66] ?
Solution: 5.22

Exercise: May I ask what pIC50 has been recorded for Cc1ccc(C(=O)Oc2ccc3cc(C(=N)N)ccc3c2)cc1 [Compound 4] ?
Solution: 6.40

Exercise: May I ask what pIC50 has been recorded for N=C(N)c1ccc2cc(OC(=O)C=Cc3ccccc3)ccc2c1 [Compound 57, 6-amidino-2-naphthyl cinnamate] ?
Solution: 4.52

Exercise: May I ask what pIC50 has been recorded for N=C(N)c1ccc2cc(OC(=O)c3ccc4c(c3)OCO4)ccc2c1 [Compound 10] ?
Solution: 6.70

Exercise: May I ask what pIC50 has been recorded for COC(=O)c1ccc(C(=O)Oc2ccc3cc(C(=N)N)ccc3c2)cc1 [Compound 14] ?
Solution: 5.15

Exercise: May I ask what pIC50 has been recorded for N#Cc1ccc(C(=O)Oc2ccc3cc(C(=N)N)ccc3c2)cc1 [Compound 19] ?
Solution: 5.40

---

Record: pIC50 reported on UniProtKB P00747.
Please treat pIC50 as minus the base-10 logarithm of the molar concentration.

Exercise: May I ask what pIC50 has been recorded for COC(=O)c1ccc(C(=O)Oc2ccc3cc(C(=N)N)ccc3c2)cc1 ?
Solution: 6.30

Exercise: May I ask what pIC50 has been recorded for N=C(N)c1ccc2cc(OC(=O)c3cccc(C(F)(F)F)c3)ccc2c1 ?
Solution: 5.52

Exercise: May I ask what pIC50 has been recorded for Cc1cccc(C(=O)Oc2ccc3cc(C(=N)N)ccc3c2)c1 [Compound 3, 6-amidino-2-naphthyl 3-methylbenzoate] ?
Solution: 5.40

---

Provide the recorded IC50 for the entries that follow.
test_target: Trypsin (Bos taurus)
Sequence (P00760 24-246): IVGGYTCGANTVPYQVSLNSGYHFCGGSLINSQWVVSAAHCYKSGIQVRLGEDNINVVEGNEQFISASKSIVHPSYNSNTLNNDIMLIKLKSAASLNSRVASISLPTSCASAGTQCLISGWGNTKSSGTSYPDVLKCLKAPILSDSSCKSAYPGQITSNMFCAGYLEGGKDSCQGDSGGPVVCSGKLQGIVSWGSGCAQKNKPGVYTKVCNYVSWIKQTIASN
Quick note: unit goes after the number.

Exercise: May I ask what IC50 has been recorded for N=C(N)c1ccc2cc(OC(=O)c3ccc4c(c3)OCO4)ccc2c1 ?
Solution: 200 nM

Exercise: May I ask what IC50 has been recorded for N=C(N)c1ccc2cc(OC(=O)c3ccc(N)cc3)ccc2c1 [Compound 20, 6-amidino-2-naphthyl 4-aminobenzoate] ?
Solution: 60 nM

Exercise: May I ask what IC50 has been recorded for CC(=O)c1ccc(C(=O)Oc2ccc3cc(C(=N)N)ccc3c2)cc1 ?
Solution: 2000 nM

Exercise: May I ask what IC50 has been recorded for COC(=O)c1ccc(C(=O)Oc2ccc3cc(C(=N)N)ccc3c2)cc1 ?
Solution: 300 nM

---

Tested on: Kallikrein
test_name: Anti-kallikrein activity (hydrolysis of TAME)
Type: biochemical
measurement_context: molar concentration inhibiting 50% of TAME hydrolysis; read-out: Kallikrein ID50
Provide the recorded log10 IC50 for the entries that follow.
Annotation: log10 of IC50, µM basis.

Exercise: May I ask what log10 IC50 has been recorded for CN(C)c1cccc(C(=O)Oc2ccc3cc(C(=N)N)ccc3c2)c1 [Compound 23] ?
Solution: 2.00

Exercise: May I ask what log10 IC50 has been recorded for CN(C)c1ccc(C(=O)Oc2ccc3cc(C(=N)N)ccc3c2)cc1 [Compound 24] ?
Solution: 1.70

Exercise: May I ask what log10 IC50 has been recorded for N=C(N)Nc1ccc(C=CC(=O)Oc2ccc3cc(C(=N)N)ccc3c2)cc1 [Compound 64] ?
Solution: 0.60

Exercise: May I ask what log10 IC50 has been recorded for COc1ccc(C=CC(=O)Oc2ccc3cc(C(=N)N)ccc3c2)cc1OC [Compound 59] ?
Solution: 0.00

Exercise: May I ask what log10 IC50 has been recorded for CC(=O)Nc1ccc(C(=O)Oc2ccc3cc(C(=N)N)ccc3c2)cc1 [Compound 25] ?
Solution: 2.00

Exercise: May I ask what log10 IC50 has been recorded for N=C(N)c1ccc2cc(OC(=O)c3ccc(CN)cc3)ccc2c1 [Compound 22] ?
Solution: 0.48

Exercise: May I ask what log10 IC50 has been recorded for N=C(N)c1ccc2cc(OC(=O)c3ccccc3)ccc2c1 [Compound 1, 6-amidino-2-naphthyl benzoate] ?
Solution: 1.48

Exercise: May I ask what log10 IC50 has been recorded for N=C(N)c1ccc2cc(OC(=O)c3ccc(CNC(=O)OCc4ccccc4)cc3)ccc2c1 [Compound 21] ?
Solution: 1.00

Exercise: May I ask what log10 IC50 has been recorded for Cc1ccc(C(=O)Oc2ccc3cc(C(=N)N)ccc3c2)cc1 [Compound 4] ?
Solution: 0.90

Exercise: May I ask what log10 IC50 has been recorded for CC(C)(C)c1ccc(C(=O)Oc2ccc3cc(C(=N)N)ccc3c2)cc1 [Compound 5] ?
Solution: 0.95

Exercise: May I ask what log10 IC50 has been recorded for N=C(N)Nc1ccc(C(=O)Oc2ccc3cc(C(=N)N)ccc3c2)cc1 [Compound 27, 6-amidino-2-naphthyl 4-guanidinobenzoate] ?
Solution: 0.70

Exercise: May I ask what log10 IC50 has been recorded for N=C(N)c1ccc2cc(OC(=O)C=Cc3ccccc3)ccc2c1 [Compound 57, 6-amidino-2-naphthyl cinnamate] ?
Solution: 1.70

Exercise: May I ask what log10 IC50 has been recorded for N=C(N)c1ccc2cc(OC(=O)C=Cc3ccc(N)cc3)ccc2c1 [Compound 63, 6-amidino-2-naphthyl 4-aminocinnamate] ?
Solution: 0.60

---

test_target: Trypsin (Bos taurus)
test_name: Anti-trypsin activity (hydrolysis of TAME)
Format: biochemical
measurement_context: at 1×10^-5 M; read-out: Trypsin percentage inhibition
endpoint: inhibition at 10 µM
Quick note: unit goes after the number.

Exercise: Could you share what inhibition at 10 µM was measured for CC(=O)Oc1ccccc1C(=O)Oc1ccc2cc(C(=N)N)ccc2c1 , tested on Trypsin (Bos taurus)?
Solution: 24%

Exercise: Could you share what inhibition at 10 µM was measured for N#Cc1ccc(C(=O)Oc2ccc3cc(C(=N)N)ccc3c2)cc1 , tested on Trypsin (Bos taurus)?
Solution: 47%

Exercise: Could you share what inhibition at 10 µM was measured for Cc1ccccc1C(=O)Oc1ccc2cc(C(=N)N)ccc2c1 [Compound 2, 6-amidino-2-naphthyl 2-methylbenzoate] , tested on Trypsin (Bos taurus)?
Solution: 38%

Exercise: Could you share what inhibition at 10 µM was measured for N=C(N)Nc1ccc(CCC(=O)Oc2ccc3cc(C(=N)N)ccc3c2)cc1 , tested on Trypsin (Bos taurus)?
Solution: 33%

---

Test system: complement mediated hemolysis
test_name: Inhibition of complement mediated hemolysis
Format: cell-based
measurement_context: 1 × 10^-4
Provide the recorded Inhibition of complement mediated hemolysis (%) for the entries that follow.
Express the result in % but write the number alone.

Exercise: May I ask what Inhibition of complement mediated hemolysis (%) has been recorded for CC(=O)Nc1ccc(C(=O)Oc2ccc3cc(C(=N)N)ccc3c2)cc1 [Compound 25] ?
Solution: 64

Exercise: May I ask what Inhibition of complement mediated hemolysis (%) has been recorded for CC(=O)c1ccc(C(=O)Oc2ccc3cc(C(=N)N)ccc3c2)cc1 [Compound 32] ?
Solution: 93

Exercise: May I ask what Inhibition of complement mediated hemolysis (%) has been recorded for N=C(N)c1ccc2cc(OC(=O)Cc3ccc(Cl)cc3)ccc2c1 [Compound 44] ?
Solution: 89

Exercise: May I ask what Inhibition of complement mediated hemolysis (%) has been recorded for N=C(N)c1ccc2cc(OC(=O)C=Cc3cccc(C(F)(F)F)c3)ccc2c1 [Compound 66] ?
Solution: 60

Exercise: May I ask what Inhibition of complement mediated hemolysis (%) has been recorded for COc1ccc(C(=O)Oc2ccc3cc(C(=N)N)ccc3c2)cc1 [Compound 7] ?
Solution: 51

Exercise: May I ask what Inhibition of complement mediated hemolysis (%) has been recorded for N=C(N)c1ccc2cc(OC(=O)COc3ccc(Cl)cc3Cl)ccc2c1 [Compound 70] ?
Solution: 26

Exercise: May I ask what Inhibition of complement mediated hemolysis (%) has been recorded for COc1ccccc1OCC(=O)Oc1ccc2cc(C(=N)N)ccc2c1 [Compound 68] ?
Solution: 91

Exercise: May I ask what Inhibition of complement mediated hemolysis (%) has been recorded for CC(=O)Oc1ccc(C(=O)Oc2ccc3cc(C(=N)N)ccc3c2)cc1 [Compound 13] ?
Solution: 94

Exercise: May I ask what Inhibition of complement mediated hemolysis (%) has been recorded for N=C(N)c1ccc2cc(OC(=O)c3ccc(C=O)cc3)ccc2c1 [Compound 31] ?
Solution: 98

Exercise: May I ask what Inhibition of complement mediated hemolysis (%) has been recorded for N=C(N)c1ccc2cc(OC(=O)c3ccc(N)cc3)ccc2c1 [Compound 20, 6-amidino-2-naphthyl 4-aminobenzoate] ?
Solution: 95

Exercise: May I ask what Inhibition of complement mediated hemolysis (%) has been recorded for Cc1cccc(C(=O)Oc2ccc3cc(C(=N)N)ccc3c2)c1 [Compound 3, 6-amidino-2-naphthyl 3-methylbenzoate] ?
Solution: 97

Exercise: May I ask what Inhibition of complement mediated hemolysis (%) has been recorded for N=C(N)c1ccc2cc(OC(=O)CCc3ccc(N)cc3)ccc2c1 [Compound 51] ?
Solution: 54

Exercise: May I ask what Inhibition of complement mediated hemolysis (%) has been recorded for N#Cc1ccc(C(=O)Oc2ccc3cc(C(=N)N)ccc3c2)cc1 [Compound 19] ?
Solution: 98

Exercise: May I ask what Inhibition of complement mediated hemolysis (%) has been recorded for COC(=O)c1ccc(C(=O)Oc2ccc3cc(C(=N)N)ccc3c2)cc1 [Compound 14] ?
Solution: 61

Exercise: May I ask what Inhibition of complement mediated hemolysis (%) has been recorded for N=C(N)c1ccc2cc(OC(=O)c3ccc(O)cc3)ccc2c1 [Compound 11, 6-amidino-2-naphthyl 4-hydroxybenzoate] ?
Solution: 96

Exercise: May I ask what Inhibition of complement mediated hemolysis (%) has been recorded for CSc1ccc(C(=O)Oc2ccc3cc(C(=N)N)ccc3c2)cc1 [Compound 30] ?
Solution: 14

Exercise: May I ask what Inhibition of complement mediated hemolysis (%) has been recorded for N=C(N)c1ccc2cc(OC(=O)C=Cc3ccc(N)cc3)ccc2c1 [Compound 63, 6-amidino-2-naphthyl 4-aminocinnamate] ?
Solution: 73
